test: HT1080 cell viability loss – fluorescence readout (AID 620); conditions: at 10 µM;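 further: cells exposed to compound overnight then 4 h with Alamar Blue; 0% = vehicle DMSO and 100% = killing control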
The campaign covered roughly 87,000 compounds. About 360 (0.41%) were called active. No stated cut-off is given here; in the data, active means cytotoxicity above about 50%; inactive means the rest. The entries come from a sample that favours actives as a whole.
Allowed answers: true (1) for active, false (0) for inactive

# count of solved cases: 5
COMPOUND	ANSWER_LABEL
COn1c(=O)c(-c2cccs2)[n+]([O-])c2ccccc21	false (0)
CCN(CC)S(=O)(=O)c1cccc(-c2nnc(SCC(=O)NC3CCCC3)n2N)c1	false (0)
CCOC(=O)c1c(C)sc2c1N(C(=O)CCl)c1cc(Cl)ccc1S2	true (1)
CC(C)Cc1nnc(NC(=O)CC(=O)Nc2ccccc2C(=O)O)s1	false (0)
N#CCSc1nnc(Cc2cccs2)n1C1CCCCC1	false (0)

Exercise: Any idea what this test logged for O=C(c1cc2ccccc2oc1=O)N(Cc1cccs1)C1CCS(=O)(=O)C1 (configuration not stated) ?
Solution: false (0)

Exercise: // repeat for O=S(=O)(c1cccc(-c2nc3ccccc3s2)c1)N1CCOCC1 and report
Solution: false (0)

Exercise: What about this compound? Nc1nonc1C(=O)NCCNCc1ccccc1OCc1ccccc1F
Solution: false (0)

Exercise: Input Cc1c(C(=O)Nc2ccc(-n3cnnn3)cc2)oc2ccccc12
Solution: false (0)

Exercise: Field entry: Cc1ccc(C2C(C(=O)O)c3ccccc3C(=O)N2C)o1 (configuration not stated)
Solution: false (0)

Exercise: Subsequent entry: COc1ccc(N/N=C(\C=N\O)C(=O)c2ccc(OC)cc2)cc1
Solution: true (1)

Exercise: Next record, please: CCn1c(CSc2nc3ccccc3n2C)nc2ccccc21
Solution: false (0)

Exercise: Further, for Cc1cc(NCCO)nc(-n2nc(C)cc2C)n1 ?
Solution: false (0)

Exercise: COc1ccc(Nc2cc(C)nc(N3CCOCC3)n2)cc1 , same question.
Solution: false (0)

Exercise: // repeat for COC(=O)c1sc(NC(=O)c2oc3ccccc3c2C)nc1C and report
Solution: false (0)

Exercise: Repeat with Cc1cc(C)n(-c2nc3ccccc3nc2N2CCOCC2)n1
Solution: false (0)

Exercise: Item: CC(C)CC(C(=O)NC1CCCC1)N(Cc1cccs1)C(=O)c1snc(C(N)=O)c1N (configuration not stated)
Solution: false (0)
